Below are compounds with their GI50 as measured on SR (Leukemia).
Only the number, expressed in µM, is required.

Please review the following examples before continuing.
>>> print(df.to_string())
                                   compound    target_desc   val
0  COc1ccc(C(=O)n2cc(C=C3C(=O)NC(=S)NC3=O)c3cc(OC)ccc32)cc1 [Compound 3k]  SR (Leukemia)  1.45
1  O=C1NC(=S)NC(=O)C1=Cc1cn(C(=O)c2cccc3ccccc23)c2ccccc12 [Compound 3t]  SR (Leukemia)  2.74
2  COc1ccc2c(c1)c(C=C1C(=O)NC(=S)NC1=O)cn2C(=O)c1cccc2ccccc12 [Compound 3w]  SR (Leukemia)  3.32

Now examine the next entry.
Task: Could you share which GI50 value was measured for COc1ccc2c(c1)c(C=C1C(=O)NC(=S)NC1=O)cn2C(=O)c1ccccc1Br [Compound 3s] ?
Result: 2.55
